biological target: unphosphorylated c-KIT kinase (uKIT, Seq. ID no. 2) (Homo sapiens); construct: uKit with N-terminal GST fusion used for; assay: uKit kinase assay (pyruvate kinase/lactate dehydrogenase coupled); settings: ATP 2000 μM
Sequence (P10721 with tags, fused parts or gaps): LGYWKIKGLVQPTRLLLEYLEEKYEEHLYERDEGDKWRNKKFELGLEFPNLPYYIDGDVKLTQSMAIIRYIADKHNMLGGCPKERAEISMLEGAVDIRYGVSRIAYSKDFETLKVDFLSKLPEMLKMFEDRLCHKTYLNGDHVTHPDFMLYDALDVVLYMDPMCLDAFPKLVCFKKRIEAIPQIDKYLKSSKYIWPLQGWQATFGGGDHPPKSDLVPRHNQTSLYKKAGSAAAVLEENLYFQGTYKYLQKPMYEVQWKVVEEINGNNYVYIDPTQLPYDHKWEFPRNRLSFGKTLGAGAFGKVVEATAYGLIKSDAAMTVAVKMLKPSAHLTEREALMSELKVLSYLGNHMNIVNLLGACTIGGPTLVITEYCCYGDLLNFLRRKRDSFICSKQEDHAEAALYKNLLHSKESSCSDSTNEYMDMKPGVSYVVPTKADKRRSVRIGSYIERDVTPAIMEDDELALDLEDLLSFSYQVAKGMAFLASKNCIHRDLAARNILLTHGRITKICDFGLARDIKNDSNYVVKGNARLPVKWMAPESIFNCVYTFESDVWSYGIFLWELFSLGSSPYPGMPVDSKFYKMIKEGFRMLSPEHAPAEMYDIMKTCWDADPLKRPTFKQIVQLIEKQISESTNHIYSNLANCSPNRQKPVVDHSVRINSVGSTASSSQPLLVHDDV

molecule | system | IC50
CN1CCN(C2CCN(C(=O)Nc3cc(Oc4ccc(NC(=O)NC(=O)C(C)(C)C)nc4)ccn3)CC2)CC1 [Example 81] | unphosphorylated c-KIT kinase (uKIT, Seq. ID no. 2) (Homo sapiens) | > 1000 nM
CCN1CCN(C(=O)Nc2cc(Oc3ccc(NC(=O)NC(=O)C(C)(C)C)nc3)ccn2)CC1 [Example 80] | unphosphorylated c-KIT kinase (uKIT, Seq. ID no. 2) (Homo sapiens) | > 1000 nM
CC(=O)Nc1cc(Oc2ccc(NC(=O)NC(=O)CC3CCCCC3)nc2)ccn1 [Example 4] | unphosphorylated c-KIT kinase (uKIT, Seq. ID no. 2) (Homo sapiens) | 10 to 100 nM
CCC(=O)Nc1cc(Oc2ccc(NC(=O)NC(=O)C3(OC)CC3)nc2)ccn1 [Example 39] | unphosphorylated c-KIT kinase (uKIT, Seq. ID no. 2) (Homo sapiens) | > 1000 nM

* * *

biological target: phospho-FMS in THP-1 cells (Homo sapiens); construct: endogenous in cells; experiment: Phospho-FMS ELISA assay in THP-1 cells; conditions: 4 hours compound, M-CSF stimulated; read-out: pFMS inhibition in THP-1 cells
pIC50: −log10 of the molar value.
Below, each entry is listed alongside its reported pIC50.

query.smiles | pIC50
CC(C)(C)C(=O)NC(=O)Nc1ccc(Oc2ccnc(NC(=O)N3CCC3)c2)cn1 | > 8.00
Cc1nc(NC(=O)NC(=O)C(C)(C)C)ccc1Oc1ccnc(NC(=O)N2CCCC2)c1 | > 8.00
COC1(C(=O)NC(=O)Nc2ccc(Oc3ccnc(NC(C)=O)c3)cn2)CCCC1 | > 8.00
Cc1nc(NC(=O)NC(=O)C(C)(C)C)ccc1Oc1ccnc(NC(=O)N2CCN(C)CC2)c1 | > 8.00
CNC(=O)c1cc(Oc2ccc(NC(=O)NC(=O)C(C)(C)C)nc2)ccn1 | 7.00 to 8.00

* * *

molecular target: unphosphorylated c-FMS kinase (uFMS, Seq. ID no. 1) (Homo sapiens); assay: uFMS kinase assay (pyruvate kinase/lactate dehydrogenase coupled); settings: ATP 500 μM
Below, each entry is listed alongside its reported IC50.
parameter: IC50

query.smiles | observed.result
CCC(=O)Nc1cc(Oc2ccc(NC(=O)NC(=O)C3(OC)CC3)nc2)ccn1 | 0.01 to 0.1 µM
COC(C)(C)C(=O)NC(=O)Nc1ccc(Oc2ccnc(NC(C)=O)c2)c(C)n1 | 0.01 to 0.1 µM
CC(=O)Nc1cc(Oc2ccc(NC(=O)NC(=O)C3(C)CCC3)nc2C)ccn1 | < 0.01 µM
CC(=O)Nc1cc(Oc2ccc(NC(=O)NC(=O)C(C)(C)C)nc2)ccn1 | < 0.01 µM
CN(C)C(=O)Nc1cc(Oc2ccc(NC(=O)NC(=O)C3(C)CC3)nc2)ccn1 | < 0.01 µM
CN1CCC(C(=O)Nc2cc(Oc3ccc(NC(=O)NC(=O)C4(C)CC4)nc3)ccn2)CC1 | 0.01 to 0.1 µM
CN(C)C(=O)Nc1cc(Oc2ccc(NC(=O)NC(=O)C3(C)CCOCC3)nc2)ccn1 | < 0.01 µM

* * *

target: unphosphorylated PDGFRβ kinase (uPDGFRβ, Seq. ID No. 3) (Homo sapiens); assay: Unphosphorylated PDGFRβ kinase assay (pyruvate kinase/lactate dehydrogenase coupled); conditions: ATP 500 μM
Sequence (P09619 557-1105): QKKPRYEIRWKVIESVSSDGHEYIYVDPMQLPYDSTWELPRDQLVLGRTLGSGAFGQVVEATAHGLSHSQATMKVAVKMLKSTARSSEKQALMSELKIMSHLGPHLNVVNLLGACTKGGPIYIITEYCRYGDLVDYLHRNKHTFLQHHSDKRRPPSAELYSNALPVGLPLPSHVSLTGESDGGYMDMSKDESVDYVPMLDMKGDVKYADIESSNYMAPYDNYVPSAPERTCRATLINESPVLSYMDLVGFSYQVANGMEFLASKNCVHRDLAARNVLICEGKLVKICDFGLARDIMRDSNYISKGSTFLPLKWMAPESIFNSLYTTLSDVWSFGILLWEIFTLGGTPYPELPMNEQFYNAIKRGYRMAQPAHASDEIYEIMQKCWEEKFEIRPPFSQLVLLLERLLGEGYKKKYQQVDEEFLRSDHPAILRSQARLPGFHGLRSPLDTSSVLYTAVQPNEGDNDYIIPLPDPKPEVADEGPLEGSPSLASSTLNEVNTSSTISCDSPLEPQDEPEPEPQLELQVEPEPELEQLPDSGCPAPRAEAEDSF
pIC50: −log10 of the molar value.

compound | system | pIC50
CC(C)(C)C(=O)NC(=O)Nc1ccc(Oc2ccnc(NC(=O)N3CCC3)c2)cn1 [Example 48] | unphosphorylated PDGFRβ kinase (uPDGFRβ, Seq. ID No. 3) (Homo sapiens) | 7.00 to 8.00
CN(C)C(=O)Nc1cc(Oc2ccc(NC(=O)NC(=O)C3(C)CCOCC3)nc2)ccn1 [Example 65] | unphosphorylated PDGFRβ kinase (uPDGFRβ, Seq. ID No. 3) (Homo sapiens) | 6.00 to 7.00
CC(C)C(=O)NC(=O)Nc1ccc(Oc2ccnc(NC(=O)N3CCN(C)CC3)c2)cn1 [Example 66] | unphosphorylated PDGFRβ kinase (uPDGFRβ, Seq. ID No. 3) (Homo sapiens) | 6.00 to 7.00
CCC(=O)Nc1cc(Oc2ccc(NC(=O)NC(=O)C3CCOCC3)nc2)ccn1 [Example 32] | unphosphorylated PDGFRβ kinase (uPDGFRβ, Seq. ID No. 3) (Homo sapiens) | 7.00 to 8.00
CN1CCC(NC(=O)c2cc(Oc3ccc(NC(=O)NC(=O)C(C)(C)C)nc3)ccn2)CC1 [Example 75] | unphosphorylated PDGFRβ kinase (uPDGFRβ, Seq. ID No. 3) (Homo sapiens) | < 6.00
CNC(=O)c1cc(Oc2ccc(NC(=O)NC(=O)C(C)(C)C)nc2)ccn1 [Example 34] | unphosphorylated PDGFRβ kinase (uPDGFRβ, Seq. ID No. 3) (Homo sapiens) | < 6.00
COC1(C(=O)NC(=O)Nc2ccc(Oc3ccnc(NC(=O)C4CC4)c3)cn2)CC1 [Example 41] | unphosphorylated PDGFRβ kinase (uPDGFRβ, Seq. ID No. 3) (Homo sapiens) | 7.00 to 8.00
Cn1cc(C(=O)Nc2cc(Oc3ccc(NC(=O)NC(=O)C(C)(C)C)nc3)ccn2)cn1 [Example 52] | unphosphorylated PDGFRβ kinase (uPDGFRβ, Seq. ID No. 3) (Homo sapiens) | 6.00 to 7.00

* * *

Target: unphosphorylated c-FMS kinase (uFMS, Seq. ID no. 1) (Homo sapiens, UniProt P07333)
Construct: purchased Millipore
Sequence (P07333 538-972): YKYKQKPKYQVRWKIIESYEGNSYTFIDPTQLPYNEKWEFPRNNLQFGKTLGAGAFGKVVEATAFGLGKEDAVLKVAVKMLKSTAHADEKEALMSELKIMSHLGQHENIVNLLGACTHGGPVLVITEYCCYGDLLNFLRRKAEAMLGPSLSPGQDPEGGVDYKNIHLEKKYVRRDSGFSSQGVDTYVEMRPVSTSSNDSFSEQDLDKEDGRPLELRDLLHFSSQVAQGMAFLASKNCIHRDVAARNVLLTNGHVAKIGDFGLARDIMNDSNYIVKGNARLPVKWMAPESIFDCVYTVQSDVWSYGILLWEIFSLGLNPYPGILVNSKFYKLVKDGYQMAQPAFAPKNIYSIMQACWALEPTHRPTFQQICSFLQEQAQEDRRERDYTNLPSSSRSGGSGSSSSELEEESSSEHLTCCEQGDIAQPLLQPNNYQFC
Experiment: uFMS kinase assay (pyruvate kinase/lactate dehydrogenase coupled)
Assay type: biochemical
Conditions: ATP 500 μM
pIC50: −log10 of the molar value.
parameter: pIC50

compound | parameter | observed.result
CCC(=O)Nc1cc(Oc2ccc(NC(=O)NC(=O)C(C)(C)C)nc2C)ccn1 [Example 12] | pIC50 | > 8.00
Cc1nc(NC(=O)NC(=O)C(C)(C)C)ccc1Oc1ccnc(NC(=O)C(C)C)c1 [Example 13] | pIC50 | > 8.00
COC(C)(C)C(=O)NC(=O)Nc1ccc(Oc2ccnc(NC(C)=O)c2)cn1 [Example 26] | pIC50 | > 8.00
CN1CCN(C2CCN(C(=O)Nc3cc(Oc4ccc(NC(=O)NC(=O)C(C)(C)C)nc4)ccn3)CC2)CC1 [Example 81] | pIC50 | > 8.00
CN(C)C1CC(C(=O)Nc2cc(Oc3ccc(NC(=O)NC(=O)C(C)(C)C)nc3)ccn2)C1 (stereo not shown) [Example 61] | pIC50 | 7.00 to 8.00
CC(=O)Nc1cc(Oc2ccc(NC(=O)NC(=O)CC3CCOCC3)nc2)ccn1 [Example 6] | pIC50 | 7.00 to 8.00
Cc1nc(NC(=O)NC(=O)C(C)(C)C)ccc1Oc1ccnc(NC(=O)C2CC2)c1 [Example 11] | pIC50 | > 8.00

* * *

target: unphosphorylated c-KIT kinase (uKIT, Seq. ID no. 2) (Homo sapiens); construct: uKit with N-terminal GST fusion used for; assay: uKit kinase assay (pyruvate kinase/lactate dehydrogenase coupled); details: ATP 2000 μM
pIC50: −log10 of the molar value.

query.smiles | pIC50
CCC(=O)Nc1cc(Oc2ccc(NC(=O)NC(=O)C(C)(C)C)nc2C)ccn1 | < 6.00
CN(C)[C@H]1CCN(C(=O)Nc2cc(Oc3ccc(NC(=O)NC(=O)C(C)(C)C)nc3)ccn2)C1 | < 6.00
CC(C)NC(=O)c1cc(Oc2ccc(NC(=O)NC(=O)C(C)(C)C)nc2)ccn1 | < 6.00
CCC(=O)Nc1cc(Oc2ccc(NC(=O)NC(=O)C(C)(C)OC)nc2)ccn1 | < 6.00
CN1CCC(C(=O)Nc2cc(Oc3ccc(NC(=O)NC(=O)C(C)(C)C)nc3)ccn2)CC1 | < 6.00
CC(C)C(=O)Nc1cc(Oc2ccc(NC(=O)NC(=O)C(C)(C)C)nc2)ccn1 | < 6.00
CN(C)CC(=O)Nc1cc(Oc2ccc(NC(=O)NC(=O)C(C)(C)C)nc2)ccn1 | < 6.00
CNC(=O)c1cc(Oc2ccc(NC(=O)NC(=O)C(C)(C)C)nc2)ccn1 | < 6.00
CC(C)(C)C(=O)NC(=O)Nc1ccc(Oc2ccnc(NC(=O)N3CCC3)c2)cn1 | 6.00 to 7.00
CC(=O)Nc1cc(Oc2ccc(NC(=O)NC(=O)C(C)(C)C)nc2C)ccn1 | < 6.00
COC(C)(C)C(=O)NC(=O)Nc1cc(C)c(Oc2ccnc(NC(C)=O)c2)cn1 | 6.00 to 7.00
CC(C)(C)C(=O)NC(=O)Nc1ccc(Oc2ccnc(NC(=O)N3CCCC3)c2)cn1 | 7.00 to 8.00
CC(=O)Nc1cc(Oc2ccc(NC(=O)NC(=O)C3(C(F)(F)F)CCC3)nc2)ccn1 | < 6.00
COC1(C(=O)NC(=O)Nc2ccc(Oc3ccnc(NC(=O)C4CC4)c3)cn2)CC1 | 6.00 to 7.00
